Values from patent US20090280138A1

Measured % of positive control peptide binding, listed per entry for reference.
TARGET_UNDER_TEST: T1, MHC class I allele B*0702 (bound via biotin to streptavidin-coated plate)
T1 construct: iTopia MHC class I monomer on the plate; placeholder peptide and b2M removed, then reconstituted with test peptide and fresh b2M; also called B7; HLA B7
ASSAY_NOTES: iTopia peptide binding assay
VALUE_TYPE: % of positive control peptide binding (%)

- SLRQLDLSH (also called Peptide No 72) [5T4 9 mer peptide 72 SLRQLDLSH]: 13
- QPPLPDQCP (also called Peptide No 28) [5T4 9 mer peptide 28 QPPLPDQCP]: 3
- LDLSNNSLV (also called Peptide No 120) [5T4 9 mer peptide 120 LDLSNNSLV]: 3
- AFEHLPSLR (also called Peptide No 69) [5T4 9 mer peptide 69 AFEHLPSLR]: 0
- LPAYVRNLF (also called Peptide No 45) [5T4 9 mer peptide 45 LPAYVRNLF]: 90
- NHIVPPEDE (also called Peptide No 91) [5T4 9 mer peptide 91 NHIVPPEDE]: 5
- AGAFEHLPS (also called Peptide No 68) [5T4 9 mer peptide 68 AGAFEHLPS]: 7
- HNPLADLSP (also called Peptide No 76) [5T4 9 mer peptide 76 HNPLADLSP]: 5
